Entries and their percent inhibition of Factor 7 mRNA, relative to untreated control cells values follow.
# Tested on: human Factor 7 mRNA
# ASSAY PROCEDURE: Dose-dependent antisense inhibition of human Factor 7 in HepB3 cells, lipofectin
# Assay type: cell-based
# EXPERIMENTAL SETUP: 12.5 nM, HepB3 cells, approx. 16 hours (Table 14)
Strand notation (5' to 3'): a small letter for the sugar, then the base; units joined by * are phosphorothioate-linked, units joined directly phosphodiester-linked; [ ] holds rarer units or linkages, { } end groups; capitals alone tell only the bases. e = 2'-O-(2-methoxyethyl) (MOE); [5mC] = 5-methylcytosine; d = 2'-deoxy (DNA)
ASSAY METRIC: percent inhibition of Factor 7 mRNA, relative to untreated control cells (%)

[[record]]
substance = "422294 (antisense eG*eA*dG*dT*dT*d[5mC]*dT*dG*d[5mC]*dA*dG*dG*dA*dG*d[5mC]*eG*eG*e[5mC]*e[5mC]*eT) [compound 422294]"
obs_value = 32

[[record]]
substance = "422096 (antisense eA*eG*eA*e[5mC]*eA*dA*dT*dG*dG*dT*d[5mC]*dA*dG*dG*dG*e[5mC]*eT*eG*eG*eT) [compound 422096]"
obs_value = 43

[[record]]
substance = "422229 (antisense eA*eT*dG*d[5mC]*dA*dT*dG*dG*dT*dG*dA*dT*dG*d[5mC]*dT*eT*e[5mC]*eT*eG*eA) [compound 422229]"
obs_value = 53

[[record]]
substance = "422292 (antisense eG*eT*dT*d[5mC]*dT*dG*d[5mC]*dA*dG*dG*dA*dG*d[5mC]*dG*dG*e[5mC]*e[5mC]*eT*eA*eA) [compound 422292]"
obs_value = 44


# credit: patent US9029337B2
